Where do the numbers come from? From patent US7517874B2.

assayed target: rat CB2 receptor (rCB2) (Rattus norvegicus)
Sequence (Q9QZN9 whole entry): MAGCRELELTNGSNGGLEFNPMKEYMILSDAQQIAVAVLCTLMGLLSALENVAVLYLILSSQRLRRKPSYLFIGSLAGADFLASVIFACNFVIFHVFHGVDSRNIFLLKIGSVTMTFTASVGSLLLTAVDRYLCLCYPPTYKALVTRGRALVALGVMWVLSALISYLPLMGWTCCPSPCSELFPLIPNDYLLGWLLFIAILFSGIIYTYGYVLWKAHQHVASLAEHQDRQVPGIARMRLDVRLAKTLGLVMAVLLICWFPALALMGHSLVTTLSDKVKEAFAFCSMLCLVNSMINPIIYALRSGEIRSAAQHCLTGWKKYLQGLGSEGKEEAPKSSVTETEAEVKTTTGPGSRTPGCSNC
assay notes: cell-based
Format: cell-based
study conditions: agonist or inverse agonist at rCB2
measure name: +/− RCB2

Example molecules with recorded +/− RCB2:
1) Cc1noc([C@@H](NC(=O)c2nc(-c3ccccc3)n3c2CN(C2CC2)CC3)C(C)(C)C)n1
−
2) CNC(=O)[C@@H](NC(=O)c1nc(C2CCCCC2)n2c1CN(C)CC2)C(C)(C)C
+
3) CNC(=O)[C@@H](NC(=O)c1nc(-c2ccsc2)n2c1CN(Cc1cncnc1)CC2)C(C)(C)C
+
4) Cc1nnc([C@@H](NC(=O)c2nc(-c3ccccc3)n3c2CN(CC(C)C)CC3)C(C)(C)C)o1
−
5) O=C(Nc1ccccc1)c1nc(-c2ccccc2)n2c1CN(C(=O)C1CC1)CC2
−

Prompt: Can you share its +/− RCB2? I mean this molecule: `CNC(=O)[C@@H](NC(=O)c1nc(/C=C/CCO)n2c1CN(C)CCC2)C(C)(C)C`
Completion: +
